Test: yeast display, Sf9 membrane polyspecificity reagent, FACS + sequencing; frameworks hold sequencing errors
Quantity measured: polyreactivity (PSR sort gate)

Recorded polyreactivity (PSR sort gate), per entry:
QVQLLESAGGLVQAGGSLRLSCAASGTIGYNGWYRQAPGKERELVAAISTRDGSTYYADSVKGRFTISRDNAMNTGYLQINSLKPEDTAVYYCAARYPSDYDYWGQGTQVTVSS	low polyreactivity
QVQLVESGGCLVQAGGSLRLSCAASGSIFDYNAMGWYRQAPGKEREFVAAISSSAGSTYYADSVKGRFTISRDNAKNTVYLQMNSLKPEDTAVYYCAADWYDFSFPYYEYEFWGQGTQVTVSS	low polyreactivity
QVQLVESGGGLVQAGGSLRLSCAASGITFGVNTMGWYRQAPGKERELVAAITWRGGSTYYADSVKGRFTISRDNAKNTVYLQMNSLKPEDTAVYYCAAQPIWPGGQELDYWGQGTQVTVSS	low polyreactivity
QVQHVESGGGLVQAGGSLRLSCAASGIIFLRYGMGWYREAPGKERELVPAISSGGSTNYADSVKGRFTISRDNAKNTVYLQLNSLKPEDTAVYYCAALYGRGRPQDSTFLFDYWGPGTQVTVSS	low polyreactivity

The recorded polyreactivity (PSR sort gate) for entry `QVQLVESGGGLVQAGGSLRLSCAASGFIFYLYARGWYRQAPGKERELVAAITRRGGSTYYADSVKGRFTISRDIAKNTFYLQMNSLKPEDTAVYYCAADHYGFFSAGDFDYWGQGTQVTVSS` equals high polyreactivity

The recorded polyreactivity (PSR sort gate) for entry `QVQLVDSGGGLVQAGGSLRLSCAASGSIFQRYAMGWYRQAPGKERELVAGINWSGGRTYYADSVKGRFTISRDNAKNTVYLQMNSLKPEDTAVYYCAAARYTRYDYWGQGTQVTVSS` equals high polyreactivity

The recorded polyreactivity (PSR sort gate) for entry `QVQLVESGGGLVQAGGSLRLSCAASGIIFRWNAMGSYRQAPGKERELVAAITRSGGSTYYADSVKGRFTISRDNAKNTVYLQMNSLKPEDTAVYYCAAEYYAPRYKFDYWGQGTQVTVSS` equals high polyreactivity

The recorded polyreactivity (PSR sort gate) for entry `QVQHEESGGGLVQAGGSLRLSCAASGSIFYDNGMGWYRPAPGKERELVAAISRGGTTNYADSVKGRFTISRDKAKNTVYFQMNSLKPEDTAVYYCNADTRFTYWGSWYDYWGQGTQVTVSS` equals low polyreactivity

The recorded polyreactivity (PSR sort gate) for entry `QVQLVETGGGLVQAGGSLRLSCAASGSTFGTYAMGWDRQAPGKERELVAAISSGDSTTYADSVKGRFTISRDNAKNTVYLQMNSLKPEDTAVYYCAARTFLMRNGGYNYWGQGTQVTVSS` equals low polyreactivity

The recorded polyreactivity (PSR sort gate) for entry `QVQLVESGGGLVQAGGSLRLSCAASGFIFRVYAMGWYRQAPGKERELVATITYDGGRTYYADSVKGRFTISRDNAKNTVYLQMNSLKPEDTAVFGYWGQGTQVTVSS` equals low polyreactivity

The recorded polyreactivity (PSR sort gate) for entry `QVQLVESGGGLVQAGGSLRLSCAASGSIFYNNAMGWYRQAPGKERELVATIRRSGGSTYYADSVKGRFTISRDNAKNTVYLQMNSLKPEDTAVYYCAADYTPDLLSKVDYWGQGTQVTVSS` equals low polyreactivity
